Can you tell me Mice found dead for the items I'm about to list?
Test system: Swiss CD-1 female mice
Assay: Nephrotoxicity study, histopathological scoring of kidney lesions
Assay type: in vivo
Conditions: Table 6; 12 mg/Kg every 2 hours × 6, subcutaneous, total 72 mg/Kg
Numbered stars: 1 amine (or outer) side, 2 acyl side, 3 side chain; on linkers, the order of the positions; unused ones are H or OH. Bridge positions count the residues as written; N and C are the ends. Square brackets hold non-standard residues; d marks the D form. Peptide text beside a SMILES is read from it. * marks the point of attachment. X1 = C[C@@H](O)[C@@H](CS[*:1])N[*:2]; dGly(nOct) = CCCCCCCC[C@@H](N)C(=O)O; Hica(2S) = CC(C)C[C@H](O)C(=O)O; Octanoyl = CCCCCCCC(=O)*; Dab = NCC[C@H](N)C(=O)O
Lab note: record the figure alone, no unit after it.

Exam item: Requested read-out Mice found dead, target or system Swiss CD-1 female mice, entry CCCCCCCC[C@@H](N)C(=O)N[C@H](C(=O)N[C@@H](CCN)C(=O)N[C@H]1CSSC[C@H]([C@@H](C)O)NC(=O)[C@H](CCN)NC(=O)[C@H](CCN)NC(=O)[C@H](CC(C)C)NC(=O)[C@@H](CC(C)C)NC(=O)[C@H](CCN)NC1=O)[C@@H](C)O [Example 6] (H-[dGly(nOct)]T[Dab]C[Dab][dL]L[Dab][Dab]; linker 4-C via X1; N-terminus assumed)
Marked response: 2

Exam item: Another compound: CCCCCCCC(=O)N[C@@H](CCN)C(=O)N[C@H](C(=O)N[C@@H](CCN)C(=O)N[C@H]1CSSC[C@H]([C@@H](C)O)NC(=O)[C@H](CCN)NC(=O)[C@H](CCN)NC(=O)[C@H](CC(C)C)OC(=O)[C@@H](Cc2ccccc2)NC(=O)[C@H](CCN)NC1=O)[C@@H](C)O [Example 9] (Octanoyl-[Dab]T[Dab]C[Dab][dF][Hica(2S)][Dab][Dab]; linker 4-C via X1)
Marked response: 1

----------
Test system: Swiss CD-1 female mice
Experiment: Nephrotoxicity study, histopathological scoring of kidney lesions
Assay type: in vivo
Settings: Table 8; 12 mg/Kg every 2 hours × 6 sc, total 72 mg/Kg; 3 mice
Assignment: determine reported Tubular dilaion, Partial AS for the given substances.

Exam item: Can you share its Tubular dilaion, Partial AS? I mean this substance: Heptanoyl-Dab-Thr-Dab-cyclo(S-S)[Cys-Dab-DAoc-Nle-Dab-Dab-DCys] [compound 3]
Marked response: 2

Exam item: Do the same for Decanoyl-Dab-Thr-Dab-cyclo(S-S)[Cys-Dab-DPhe-Nle-Dab-Dab-DCys] [compound 2] please
Marked response: 1

Exam item: Here is the next substance: Nonanoyl-Dab-Thr-Dab-cyclo(S-S)[Cys-Dab-DPhe-Leu-Dab-Dab-Cys] [compound 1]
Marked response: 6

Exam item: Try this substance too: DAoc-Thr-Dab-cyclo(S-S)[Cys-Dab-DNIe-Leu-Dab-Dab-DCys] [compound 5]
Marked response: 6

----------
Test system: Swiss CD-1 female mice
Assay: Nephrotoxicity study, histopathological scoring of kidney lesions
Format: in vivo
Conditions: Table 6; sum of mouse scores; 12 mg/Kg every 2 hours × 6, subcutaneous, total 72 mg/Kg
Numbered stars: 1 amine (or outer) side, 2 acyl side, 3 side chain; on linkers, the order of the positions; unused ones are H or OH. Bridge positions count the residues as written; N and C are the ends. Square brackets hold non-standard residues; d marks the D form. Peptide text beside a SMILES is read from it. * marks the point of attachment. X1 = C[C@@H](O)[C@@H](CS[*:1])N[*:2]; Hica(2S) = CC(C)C[C@H](O)C(=O)O; Octanoyl = CCCCCCCC(=O)*; Dab = NCC[C@H](N)C(=O)O
test_readout: Tubular casts, Partial AS
Output: the number by itself.

Exam item: For the molecule CCCCCCCC(=O)N[C@@H](CCN)C(=O)N[C@H](C(=O)N[C@@H](CCN)C(=O)N[C@H]1CSSC[C@H]([C@@H](C)O)NC(=O)[C@H](CCN)NC(=O)[C@H](CCN)NC(=O)[C@H](CC(C)C)OC(=O)[C@@H](Cc2ccccc2)NC(=O)[C@H](CCN)NC1=O)[C@@H](C)O [Example 9] (Octanoyl-[Dab]T[Dab]C[Dab][dF][Hica(2S)][Dab][Dab]; linker 4-C via X1) , what Tubular casts, Partial AS is on record?
Marked response: 0

----------
For each of the substances below, state its AS, Partial AS.
Tested on: Swiss CD-1 female mice
Assay: Nephrotoxicity study, histopathological scoring of kidney lesions
Format: in vivo
Conditions: Table 8; 12 mg/Kg every 2 hours × 6 sc, total 72 mg/Kg; 3 mice
# answer = number (no unit)

Exam item: I would be grateful if you could share the reported AS, Partial AS for Nonanoyl-Dab-Thr-Dab-cyclo(S-S)[Cys-Dab-DPhe-Leu-Dab-Dab-Cys] [compound 1] .
Marked response: 12

Exam item: Next: Heptanoyl-Dab-Thr-Dab-cyclo(S-S)[Cys-Dab-DAoc-Nle-Dab-Dab-DCys] [compound 3]
Marked response: 8

Exam item: Same question for Decanoyl-Dab-Thr-Dab-cyclo(S-S)[Cys-Dab-DPhe-Nle-Dab-Dab-DCys] [compound 2] please.
Marked response: 4

Exam item: How about this substance: DAoc-Thr-Dab-cyclo(S-S)[Cys-Dab-DNIe-Leu-Dab-Dab-DCys] [compound 5]
Marked response: 13

----------
Tested on: Swiss CD-1 female mice
Assay: Nephrotoxicity study, histopathological scoring of kidney lesions
Format: in vivo
Settings: Table 6; sum of mouse scores; 12 mg/Kg every 2 hours × 6, subcutaneous, total 72 mg/Kg
Numbered stars: 1 amine (or outer) side, 2 acyl side, 3 side chain; on linkers, the order of the positions; unused ones are H or OH. Bridge positions count the residues as written; N and C are the ends. Square brackets hold non-standard residues; d marks the D form. Peptide text beside a SMILES is read from it. X1 = C[C@@H](O)[C@@H](CS[*:1])N[*:2]; dGly(nOct) = CCCCCCCC[C@@H](N)C(=O)O; Dab = NCC[C@H](N)C(=O)O
test_readout: Tubular necrosis, Partial AS
Please state the value as a number alone, without comment.

Exam item: State the recorded Tubular necrosis, Partial AS for this entry: CCCCCCCC[C@@H](N)C(=O)N[C@H](C(=O)N[C@@H](CCN)C(=O)N[C@H]1CSSC[C@H]([C@@H](C)O)NC(=O)[C@H](CCN)NC(=O)[C@H](CCN)NC(=O)[C@H](CC(C)C)NC(=O)[C@@H](Cc2ccccc2)NC(=O)[C@H](CCN)NC1=O)[C@@H](C)O [Example 5] (H-[dGly(nOct)]T[Dab]C[Dab][dF]L[Dab][Dab]; linker 4-C via X1; N-terminus assumed)
Marked response: 0

----------
System: K. pneumoniae MB674
Assay type: cell-based
Details: MB674
Numbered stars: 1 amine (or outer) side, 2 acyl side, 3 side chain; on linkers, the order of the positions; unused ones are H or OH. Bridge positions count the residues as written; N and C are the ends. Square brackets hold non-standard residues; d marks the D form. Peptide text beside a SMILES is read from it. * marks the point of attachment. X1 = C[C@@H](O)[C@@H](CS[*:1])N[*:2]; dGly(nOct) = CCCCCCCC[C@@H](N)C(=O)O; Hica(2S) = CC(C)C[C@H](O)C(=O)O; Octanoyl = CCCCCCCC(=O)*; Dab = NCC[C@H](N)C(=O)O
test_readout: antibacterial activity (MIC) (µg/mL)
Please reply with the bare figure in µg/mL and do not write the unit itself.

Exam item: Entry CCCCCCCC(=O)N[C@@H](CCN)C(=O)N[C@H](C(=O)N[C@@H](CCN)C(=O)N[C@H]1CSSC[C@H]([C@@H](C)O)NC(=O)[C@H](CCN)NC(=O)[C@H](CCN)NC(=O)[C@H](CC(C)C)OC(=O)[C@@H](CC(C)C)NC(=O)[C@H](CCN)NC1=O)[C@@H](C)O [Example 7] (Octanoyl-[Dab]T[Dab]C[Dab][dL][Hica(2S)][Dab][Dab]; linker 4-C via X1) has what antibacterial activity (MIC)?
Marked response: 1

Exam item: For CCCCCCCC(=O)N[C@@H](CCN)C(=O)N[C@H](C(=O)N[C@@H](CCN)C(=O)N[C@H]1CSSC[C@H]([C@@H](C)O)NC(=O)[C@H](CCN)NC(=O)[C@H](CCN)NC(=O)[C@H](CC(C)C)OC(=O)[C@@H](Cc2ccccc2)NC(=O)[C@H](CCN)NC1=O)[C@@H](C)O [Example 9] (Octanoyl-[Dab]T[Dab]C[Dab][dF][Hica(2S)][Dab][Dab]; linker 4-C via X1) then?
Marked response: 1

Exam item: What do you have for CCCCCCCC[C@@H](N)C(=O)N[C@H](C(=O)N[C@@H](CCN)C(=O)N[C@H]1CSSC[C@H]([C@@H](C)O)NC(=O)[C@H](CCN)NC(=O)[C@H](CCN)NC(=O)[C@H](CC(C)C)NC(=O)[C@@H](Cc2ccccc2)NC(=O)[C@H](CCN)NC1=O)[C@@H](C)O [Example 5] (H-[dGly(nOct)]T[Dab]C[Dab][dF]L[Dab][Dab]; linker 4-C via X1; N-terminus assumed) ?
Marked response: 1

Exam item: Try CCCCCCCC[C@@H](N)C(=O)N[C@H](C(=O)N[C@@H](CCN)C(=O)N[C@H]1CSSC[C@H]([C@@H](C)O)NC(=O)[C@H](CCN)NC(=O)[C@H](CCN)NC(=O)[C@H](CC(C)C)OC(=O)[C@@H](CC(C)C)NC(=O)[C@H](CCN)NC1=O)[C@@H](C)O [Example 8] (H-[dGly(nOct)]T[Dab]C[Dab][dL][Hica(2S)][Dab][Dab]; linker 4-C via X1) next.
Marked response: 1

Exam item: Next entry: CCCCCCCC[C@@H](N)C(=O)N[C@H](C(=O)N[C@@H](CCN)C(=O)N[C@H]1CSSC[C@H]([C@@H](C)O)NC(=O)[C@H](CCN)NC(=O)[C@H](CCN)NC(=O)[C@H](CC(C)C)OC(=O)[C@@H](Cc2ccccc2)NC(=O)[C@H](CCN)NC1=O)[C@@H](C)O [Example 10] (H-[dGly(nOct)]T[Dab]C[Dab][dF][Hica(2S)][Dab][Dab]; linker 4-C via X1)
Marked response: 2

Exam item: For CCCCCCCC[C@@H](N)C(=O)N[C@H](C(=O)N[C@@H](CCN)C(=O)N[C@H]1CSSC[C@H]([C@@H](C)O)NC(=O)[C@H](CCN)NC(=O)[C@H](CCN)NC(=O)[C@H](CC(C)C)NC(=O)[C@@H](CC(C)C)NC(=O)[C@H](CCN)NC1=O)[C@@H](C)O [Example 6] (H-[dGly(nOct)]T[Dab]C[Dab][dL]L[Dab][Dab]; linker 4-C via X1; N-terminus assumed) then?
Marked response: 0.5
